Measured values drawn from patent US20260240847A1 for this set.

- Study target: EGFR Ex19del/T790M/G724S (Homo sapiens, UniProt P00533, DEL746-750/G724S/T790M)
- Assay text: Ba/F3 cell viability, Cell Titer Glo
- Recorded conditions: read-out: IC50 Values; Ba/F3 cells expressing EGFR Ex19del/T790M/G724S, 72 hours
Quantity name: pIC50
The value called pIC50 is obtained by taking minus log10 of the concentration in mol/L.

COc1cc(N2CCC(N)CC2)ccc1Nc1ncc(Cl)c(-c2c[nH]c3ccccc23)n1 [AZD3463]
5.79

Field: next molecule
Task: Hello, please tell me recorded pIC50 for this one: C=CC(=O)N1CC[C@@H](Oc2nc(Nc3ccc(N4CCC(N5CCN(C)CC5)CC4)cc3)c(C(N)=O)nc2CC)C1 [Naquotinib]
Result: 8.42

###

- Study target: EGFR S768I/V769L (Homo sapiens, UniProt P00533, S768I/V769L)
- Assay text: Ba/F3 cell viability, Cell Titer Glo
- Recorded conditions: read-out: IC50 Values; Ba/F3 cells expressing EGFR S768I/V769L, 72 hours
Quantity name: IC50 (µM)
Kindly answer with a numeric value in µM, unit omitted.

Task: // fetch IC50 for C=CC(=O)N1CC[C@@H](Oc2nc(Nc3ccc(N4CCC(N5CCN(C)CC5)CC4)cc3)c(C(N)=O)nc2CC)C1 ; system: EGFR S768I/V769L (Homo sapiens, UniProt P00533, S768I/V769L)
Result: 0.234

###

- Study target: EGFR L858R/V834L (Homo sapiens, UniProt P00533, L858R/V834L)
- Assay text: Ba/F3 cell viability, Cell Titer Glo
- Recorded conditions: read-out: IC50 Values; Ba/F3 cells expressing EGFR L858R/V834L, 72 hours
Quantity name: pIC50
pIC50 here is simply -log10 of the concentration when that concentration is written in mol/L.

Task: Check the records and state pIC50 for C=CC(=O)N1CC[C@@H](Oc2nc(Nc3ccc(N4CCC(N5CCN(C)CC5)CC4)cc3)c(C(N)=O)nc2CC)C1
Result: 8.14

###

- Study target: EGFR E709AG719S (Homo sapiens, UniProt P00533, E709A/G719S)
- Assay text: Ba/F3 cell viability, Cell Titer Glo
- Recorded conditions: read-out: IC50 Values; Ba/F3 cells expressing EGFR E709AG719S, 72 hours
Quantity name: IC50 (nM)
// note: answer is a bare numeric in nM

Task: Give IC50 for C=CC(=O)N1CC[C@@H](Oc2nc(Nc3ccc(N4CCC(N5CCN(C)CC5)CC4)cc3)c(C(N)=O)nc2CC)C1
Result: 48.1

###

- Study target: EGFR T725M (Homo sapiens, UniProt P00533, T725M)
- Assay text: Ba/F3 cell viability, Cell Titer Glo
- Recorded conditions: read-out: IC50 Values; Ba/F3 cells expressing EGFR T725M, 72 hours
Quantity name: pIC50
Kindly note that pIC50 refers to -log10 of the concentration in mol/L and answer with the value alone.

Task: Please respond with reported pIC50 (system EGFR T725M (Homo sapiens, UniProt P00533, T725M)) for C=CC(=O)N1CC[C@@H](Oc2nc(Nc3ccc(N4CCC(N5CCN(C)CC5)CC4)cc3)c(C(N)=O)nc2CC)C1 .
Result: 7.11

###

- Study target: EGFR K757R (Homo sapiens, UniProt P00533, K757R)
- Assay text: Ba/F3 cell viability, Cell Titer Glo
- Recorded conditions: read-out: IC50 Values; Ba/F3 cells expressing EGFR K757R, 72 hours
Quantity name: IC50 (nM)
Number in nM, nothing else.

Task: Supply IC50 value. Item: C=CC(=O)N1CC[C@@H](Oc2nc(Nc3ccc(N4CCC(N5CCN(C)CC5)CC4)cc3)c(C(N)=O)nc2CC)C1 [Naquotinib]
Result: 122
